Just for reference, ChEMBL document CHEMBL2417481 is where these values come from.

Tested on: Punta Toro virus
Test: Antiviral activity against Punta Toro virus infected in african green monkey Vero cells assessed as reduction in virus-induced cytopathogenicity
Assay type: functional, organism-based
Attribute measured: EC50

# annotated cases, reported EC50 shown
# Compound, Endpoint value
measured = [
    ("COc1ccc(/C=C/c2nc(N)[nH]c(=O)c2Br)cc1OC", "> 100 µM"),
    ("CC(C)(O)Cc1nc(N)[nH]c(=O)c1Br", "> 100 µM"),
]

Output measured EC50 for this item: Nc1nc(CC(O)c2ccccc2C(F)(F)F)c(Br)c(=O)[nH]1 (stereo unspecified)
> 100 µM

Report EC50, nothing else, for this compound: NC(=O)c1ncn([C@@H]2O[C@H](CO)[C@@H](O)[C@H]2O)n1
112 µM

Output EC50 of Nc1nc(CC(O)c2ccc(Cl)cc2)c(Br)c(=O)[nH]1 (stereo unspecified)
> 100 µM

Could you please provide reported EC50 for CCCCc1nc(N)[nH]c(=O)c1Br ? Thanks!
> 100 µM

Annotate the compound Cc1cc(C)c(/C=C/c2nc(N)[nH]c(=O)c2Br)c(C)c1 with its measured EC50.
> 20 µM

====

Test system: Influenza A virus
Test: Antiviral activity against Influenza A virus […] infected in MDCK cells assessed as reduction in virus-induced cytopathogenicity
Format: functional, organism-based
pEC50: −log10 of the molar value.
Recorded pEC50 values for a group of compounds are listed next.

# Compound, pEC50
records = [
    ("NC12CC3CC(CC(C3)C1)C2", 6.10),
    ("Nc1nc(CC(O)c2ccccc2C(F)(F)F)c(Br)c(=O)[nH]1 (stereo unspecified)", "< 4.00"),
    ("Cc1cc(C)c(/C=C/c2nc(N)[nH]c(=O)c2Br)c(C)c1", "< 4.70"),
    ("CCCCc1nc(N)[nH]c(=O)c1Br", "< 4.00"),
]

Give pEC50 for the following compound: CC(C)(O)Cc1nc(N)[nH]c(=O)c1Br
< 4.00

Supply pEC50 value. Item: NC(=O)c1ncn([C@@H]2O[C@H](CO)[C@@H](O)[C@H]2O)n1
5.14

Give recorded pEC50. Nc1nc(CCc2ccccc2)c(Br)c(=O)[nH]1
< 4.00

State its pEC50: Nc1nc(CC(O)c2ccc(Cl)cc2)c(Br)c(=O)[nH]1 (stereo unspecified)
< 4.00

Specify measured pEC50 for CCCc1nc(N)[nH]c(=O)c1Br .
< 4.00

// fetch pEC50 given entry CCCCCc1nc(N)[nH]c(=O)c1Br
< 4.00

Query pEC50 for COc1ccc(/C=C/c2nc(N)[nH]c(=O)c2Br)cc1OC
< 4.70

====

Test: Cytotoxicity against human HEL cells assessed as morphological changes
Type: cell-based
Attribute measured: MCC

# Molecule, MCC
rows = [
    ("COc1ccc(/C=C/c2nc(N)[nH]c(=O)c2Br)cc1OC", "> 100 µM"),
]

Look up and report measured MCC for this entry: Cc1cc(C)c(/C=C/c2nc(N)[nH]c(=O)c2Br)c(C)c1
> 20 µM

Report MCC, nothing else, for this molecule: O=c1[nH]c(=O)n([C@H]2C[C@H](O)[C@@H](CO)O2)cc1/C=C/Br [BRIVUDINE]
> 250 µM

Return value of MCC for input CCCCc1nc(N)[nH]c(=O)c1Br , no commentary.
≥ 100 µM

Let me know recorded MCC for Nc1nc2c(ncn2COC(CO)CO)c(=O)[nH]1 [GANCICLOVIR] , thanks.
> 100 µM

Return the recorded MCC value; entry: Nc1nc(CCc2ccccc2)c(Br)c(=O)[nH]1
> 100 µM

====

Test: Cytotoxicity against human HEL cells assessed as morphological changes
Assay type: cell-based
Attribute measured: MCC

Use these answered entries as a reference point.
# Molecule, Endpoint value
data = [
    ("Nc1nc(CC(O)c2ccc(Cl)cc2)c(Br)c(=O)[nH]1 (configuration not stated)", "> 100 µM"),
    ("Nc1nc2c(ncn2COCCO)c(=O)[nH]1 [ACYCLOVIR]", "> 250 µM"),
    ("CCCCCc1nc(N)[nH]c(=O)c1Br", "> 20 µM"),
]

Indicate the recorded MCC value for this molecule: CCCc1nc(N)[nH]c(=O)c1Br
> 100 µM

Identify the reported MCC for the following entry. CC(C)(O)Cc1nc(N)[nH]c(=O)c1Br
> 100 µM

Answer with the recorded MCC of Nc1nc(CC(O)c2ccccc2C(F)(F)F)c(Br)c(=O)[nH]1 (configuration not stated) only.
> 100 µM

Identify measured MCC associated with Nc1ccn(C[C@@H](CO)OCP(=O)(O)O)c(=O)n1 [CIDOFOVIR]
> 250 µM

====

Tested on: Felid alphaherpesvirus 1
Test: Antiviral activity against Feline Herpes virus infected in cat CRFK cells assessed as inhibition of virus-induced cytopathic effect by MTS assay
Format: functional, organism-based
Study conditions: Felid alphaherpesvirus 1, CRFK
Attribute measured: EC50

# Molecule, EC50
rows = [
    ("Nc1nc(CCc2ccccc2)c(Br)c(=O)[nH]1", "> 100 µM"),
]

Please give the documented EC50 of CC(C)(O)Cc1nc(N)[nH]c(=O)c1Br
> 100 µM

Please look at this molecule and report its EC50: Cc1cc(C)c(/C=C/c2nc(N)[nH]c(=O)c2Br)c(C)c1
1.5 µM

Read the entry Nc1nc(CC(O)c2ccccc2C(F)(F)F)c(Br)c(=O)[nH]1 (stereo unspecified) and write its reported EC50.
> 100 µM

Look up and report measured EC50 for this entry: CCCCCc1nc(N)[nH]c(=O)c1Br
> 100 µM

Quick one: give measured EC50 for COc1ccc(/C=C/c2nc(N)[nH]c(=O)c2Br)cc1OC
> 100 µM

====

Listed here: items and their measured EC50.
Tested on: Felid alphaherpesvirus 1
Test: Antiviral activity against Feline Herpes virus infected in cat CRFK cells assessed as inhibition of virus-induced cytopathic effect by MTS assay
Type: functional, organism-based
Study conditions: Felid alphaherpesvirus 1, CRFK

Solved cases (3 shown):
# Compound, EC50
rows = [
    ("CCCCc1nc(N)[nH]c(=O)c1Br", "> 100 µM"),
    ("Nc1nc(CC(O)c2ccc(Cl)cc2)c(Br)c(=O)[nH]1 (centres undefined)", "> 100 µM"),
    ("CCCc1nc(N)[nH]c(=O)c1Br", "> 100 µM"),
]

Pending compound:
Read the entry Nc1nc2c(ncn2COC(CO)CO)c(=O)[nH]1 and write its reported EC50.
0.9 µM

====

Tested on: Cytomegalovirus
Test: Antiviral activity against Cytomegalovirus AD-169 infected in human HEL cells assessed as reduction in virus plaque formation
Format: functional, organism-based
Study conditions: Human betaherpesvirus 5, AD-169, HEL
Attribute measured: EC50 (µM)
The figure you give is taken to be in µM; do not add the unit.

# Compound, Result units, EC50
records = [
    ("Nc1ccn(C[C@@H](CO)OCP(=O)(O)O)c(=O)n1 [CIDOFOVIR]", "µM", 3.1),
    ("Nc1nc(CC(O)c2ccc(Cl)cc2)c(Br)c(=O)[nH]1 (stereo unspecified)", "µM", 100),
    ("CC(C)(O)Cc1nc(N)[nH]c(=O)c1Br", "µM", 100),
    ("Cc1cc(C)c(/C=C/c2nc(N)[nH]c(=O)c2Br)c(C)c1", "µM", 11),
]

Turning now to a further record.
Provide one value: measured EC50 of Nc1nc2c(ncn2COC(CO)CO)c(=O)[nH]1 [GANCICLOVIR]
3.1

====

System: Respiratory syncytial virus
Test: Antiviral activity against Respiratory syncytial virus Long infected in human HeLa cells assessed as reduction in virus-induced cytopathogenicity
Assay type: functional, organism-based
Recorded EC50 by entry

# Compound, EC50
rows = [
    ("Nc1nc(CC(O)c2ccccc2C(F)(F)F)c(Br)c(=O)[nH]1 (stereo unspecified)", "> 100 µM"),
    ("NC(=O)c1ncn([C@@H]2O[C@H](CO)[C@@H](O)[C@H]2O)n1", "5 µM"),
    ("CCCc1nc(N)[nH]c(=O)c1Br", "> 100 µM"),
    ("Nc1nc(CCc2ccccc2)c(Br)c(=O)[nH]1", "> 100 µM"),
    ("Nc1ncnc2c1ncn2C[C@H](O)CO [(S)-DHPA]", "> 250 µM"),
    ("CCCCCc1nc(N)[nH]c(=O)c1Br", "> 4 µM"),
]

Name the recorded EC50 of the compound listed here: Cc1cc(C)c(/C=C/c2nc(N)[nH]c(=O)c2Br)c(C)c1
> 20 µM

In one line, give reported EC50 of the entry CC(C)(O)Cc1nc(N)[nH]c(=O)c1Br .
> 100 µM

Identify measured EC50 corresponding to Nc1nc(CC(O)c2ccc(Cl)cc2)c(Br)c(=O)[nH]1 (stereo unspecified)
> 100 µM

Indicate its recorded EC50; the compound in question is CCCCc1nc(N)[nH]c(=O)c1Br
> 20 µM

Give EC50 for COc1ccc(/C=C/c2nc(N)[nH]c(=O)c2Br)cc1OC
> 100 µM
